# measurement.target: ferroportin (Homo sapiens, UniProt Q9NP59)
# Sequence (Q9NP59 1-571): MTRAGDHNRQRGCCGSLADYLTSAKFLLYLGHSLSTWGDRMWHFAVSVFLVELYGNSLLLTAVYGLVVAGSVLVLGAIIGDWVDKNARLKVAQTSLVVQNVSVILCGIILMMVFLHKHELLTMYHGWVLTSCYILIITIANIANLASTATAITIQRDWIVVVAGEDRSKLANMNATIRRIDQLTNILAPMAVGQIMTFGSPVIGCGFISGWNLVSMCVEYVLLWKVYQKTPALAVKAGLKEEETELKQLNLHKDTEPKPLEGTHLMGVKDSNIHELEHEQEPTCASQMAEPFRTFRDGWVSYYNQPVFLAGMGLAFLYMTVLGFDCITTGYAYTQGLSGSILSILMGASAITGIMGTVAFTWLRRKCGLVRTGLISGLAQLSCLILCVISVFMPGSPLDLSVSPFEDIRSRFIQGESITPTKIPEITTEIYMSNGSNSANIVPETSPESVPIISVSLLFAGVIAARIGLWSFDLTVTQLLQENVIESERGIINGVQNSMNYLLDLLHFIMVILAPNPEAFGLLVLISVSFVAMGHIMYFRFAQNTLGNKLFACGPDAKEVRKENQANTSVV
# test.name: FPN activity assay: internalization/degradation of ferroportin-GFP in stably transfected HEK293 cells, decrease in GFP fluorescence
# Format: cell-based
# Set-up: expressed in transfected cells
# details: HEK293 cells stably expressing ferroportin-GFP, at least 18 hours incubation; read-out: FPN EC50
endpoint.name: DC50

Looking up CC[C@H](C)[C@@H]1NC(=O)[C@@H](NC(=O)[C@@H]2CCCN2C(=O)[C@@H](NC(=O)[C@H](Cc2cnc[nH]2)NC(=O)[C@@H](NC(=O)[C@H](CC2N=NN=N2)NC(=O)CC(C)C)[C@@H](C)O)C(c2ccccc2)c2ccccc2)CSSC[C@@H](C(N)=O)NC(=O)[C@@H](CCCCN)NC(=O)C[C@H](Cc2ccccc2)NC(=O)[C@H](CCCCNC(=O)COCCOCCNC(=O)COCCOCCNC(=O)CCCCCNC(=O)CCCCCCCCCCCCCCCCC(=O)O)NC1=O [Compd 51] , I see its DC50 listed as 10 to 100 nM

====

# measurement.target: ferroportin (Homo sapiens, UniProt Q9NP59)
# Sequence (Q9NP59 1-571): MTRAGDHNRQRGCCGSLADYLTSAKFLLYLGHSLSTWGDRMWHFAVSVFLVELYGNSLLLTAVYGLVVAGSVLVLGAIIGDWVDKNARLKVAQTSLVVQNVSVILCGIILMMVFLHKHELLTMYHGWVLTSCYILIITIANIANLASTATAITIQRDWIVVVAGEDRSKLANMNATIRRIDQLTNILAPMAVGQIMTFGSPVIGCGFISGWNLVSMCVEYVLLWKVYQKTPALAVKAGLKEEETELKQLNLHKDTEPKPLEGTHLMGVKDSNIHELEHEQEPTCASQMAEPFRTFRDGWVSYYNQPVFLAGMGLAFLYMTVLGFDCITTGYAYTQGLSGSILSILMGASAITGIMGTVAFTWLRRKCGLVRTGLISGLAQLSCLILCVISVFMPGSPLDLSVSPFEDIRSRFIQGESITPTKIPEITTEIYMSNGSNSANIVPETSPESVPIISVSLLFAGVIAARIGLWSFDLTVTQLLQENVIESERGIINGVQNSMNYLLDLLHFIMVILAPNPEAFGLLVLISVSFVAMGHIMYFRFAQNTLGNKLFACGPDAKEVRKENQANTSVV
# test.name: T47D cell-based ferroportin internalization assay in presence of 0.5% mouse serum albumin (MSA), AF647-conjugated detection peptide, flow cytometry
# details: T47D cells, 1 hr incubation
Parameter IC50: see the listing below.

Value of IC50 reported for the molecule CC[C@H](C)[C@@H]1NC(=O)[C@@H](NC(=O)[C@@H]2CCCN2C(=O)[C@@H](NC(=O)[C@H](Cc2cnc[nH]2)NC(=O)[C@@H](NC(=O)[C@H](CC2N=NN=N2)NC(=O)CC(C)C)[C@@H](C)O)C(c2ccccc2)c2ccccc2)CSSC[C@@H](C(N)=O)NC(=O)[C@@H](CCCCN)NC(=O)C[C@H](Cc2ccccc2)NC(=O)[C@H](CCCCNC(=O)COCCOCCNC(=O)COCCOCCNC(=O)CCCCCNC(=O)CCCCCCCCCCCCCCCCC(=O)O)NC1=O is 10 to 100 nM

====

# measurement.target: ferroportin (Homo sapiens)
# test.name: T47D cell-based ferroportin internalization assay in presence of 0.5% mouse serum albumin (MSA), AF647-conjugated detection peptide, flow cytometry
# details: T47D cells, 1 hr incubation
endpoint.name: IC50

Per the records, this compound ( CC[C@H](C)[C@@H]1NC(=O)[C@@H](NC(=O)[C@@H]2CCCN2C(=O)[C@@H](NC(=O)[C@H](Cc2c[nH]cn2)NC(=O)[C@@H](NC(=O)[C@H](Cc2nn[nH]n2)NC(=O)CC(C)C(F)(F)F)[C@@H](C)O)C(c2ccccc2)c2ccccc2)CSSC[C@@H](C(N)=O)NC(=O)[C@@H](CCCCN)NC(=O)C[C@H](Cc2ccccc2)NC(=O)[C@H](CCCCNC(=O)COCCOCCNC(=O)COCCOCCNC(=O)CC[C@H](NC(=O)CCCCCCCCCCCCCCCCC(=O)O)C(=O)O)NC1=O (stereo partly shown) [Compd 45] ) has IC50 equal to 100 to 500 nM

====

# measurement.target: ferroportin (Homo sapiens, UniProt Q9NP59)
# Sequence (Q9NP59 1-571): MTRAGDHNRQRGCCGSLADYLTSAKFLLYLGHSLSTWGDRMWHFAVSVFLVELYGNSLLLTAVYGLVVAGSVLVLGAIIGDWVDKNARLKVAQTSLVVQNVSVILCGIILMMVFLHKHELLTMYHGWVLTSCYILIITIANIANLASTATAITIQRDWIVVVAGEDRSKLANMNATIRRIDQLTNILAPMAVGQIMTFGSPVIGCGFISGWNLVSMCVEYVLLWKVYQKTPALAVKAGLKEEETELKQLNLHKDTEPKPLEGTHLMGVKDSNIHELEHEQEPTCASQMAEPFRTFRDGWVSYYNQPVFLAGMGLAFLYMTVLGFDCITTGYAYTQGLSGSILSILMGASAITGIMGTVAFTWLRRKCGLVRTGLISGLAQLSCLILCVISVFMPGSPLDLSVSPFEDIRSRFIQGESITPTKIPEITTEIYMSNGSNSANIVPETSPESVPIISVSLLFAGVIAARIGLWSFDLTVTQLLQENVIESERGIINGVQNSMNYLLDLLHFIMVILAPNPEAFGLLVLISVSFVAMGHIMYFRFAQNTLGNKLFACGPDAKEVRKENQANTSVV
# test.name: T47D cell-based ferroportin internalization assay in presence of 0.5% mouse serum albumin (MSA), AF647-conjugated detection peptide, flow cytometry
# details: T47D cells, 1 hr incubation
pIC50: −log10 of the molar value.
We begin with a simple list: items and their reported pIC50.

// field: pIC50; key: CC[C@H](C)[C@@H]1NC(=O)[C@@H](NC(=O)[C@@H]2CCCN2C(=O)[C@@H](NC(=O)[C@H](Cc2c[nH]cn2)NC(=O)[C@@H](NC(=O)[C@H](Cc2nn[nH]n2)NC(=O)C(C)(C)Br)[C@@H](C)O)C(c2ccccc2)c2ccccc2)CSSC[C@@H](C(N)=O)NC(=O)[C@@H](CCCCN)NC(=O)C[C@H](Cc2ccccc2)NC(=O)[C@H](CCCCNC(=O)COCCOCCNC(=O)COCCOCCNC(=O)CC[C@H](NC(=O)CCCCCCCCCCCCCCCCC(=O)O)C(=O)O)NC1=O [Compd 46] ; value = 7.00 to 8.00

compound CC[C@H](C)[C@@H]1NC(=O)[C@@H](NC(=O)[C@@H]2CCCN2C(=O)[C@@H](NC(=O)[C@H](Cc2cnc[nH]2)NC(=O)[C@@H](NC(=O)[C@H](CC2N=NN=N2)NC(=O)CC(C)C)[C@@H](C)O)C(c2ccccc2)c2ccccc2)CSSC[C@@H](C(N)=O)NC(=O)[C@@H](CCCCN)NC(=O)C[C@H](Cc2ccccc2)NC(=O)[C@H](CCCCNC(=O)COCCOCCNC(=O)COCCOCCNC(=O)[C@H](CN)NC(=O)CCCCCCCCCCCCCCCCC(=O)O)NC1=O [Compd 53] , pIC50 observed: 7.00 to 8.00

Looking up CC[C@H](C)[C@@H]1NC(=O)[C@@H](NC(=O)[C@@H]2CCCN2C(=O)[C@@H](NC(=O)[C@H](Cc2cncn2C)NC(=O)[C@@H](NC(=O)[C@H](CC2N=NN=N2)NC(=O)CC(C)C)[C@@H](C)O)C(c2ccccc2)c2ccccc2)CSSC[C@@H](C(N)=O)NC(=O)[C@@H](CCCCN)NC(=O)C[C@H](Cc2ccccc2)NC(=O)[C@H](CCCCNC(=O)COCCOCCNC(=O)COCCOCCNC(=O)CC[C@H](NC(=O)CCCCCCCCCCCCCCCCC(=O)O)C(=O)O)NC1=O [Compd 8] , I see its pIC50 listed as 6.30 to 7.00

Summary for this compound, CCCC(=O)N[C@@H](Cc1nn[nH]n1)C(=O)N[C@H](C(=O)N[C@@H](Cc1c[nH]cn1)C(=O)N[C@H](C(=O)N1CCC[C@H]1C(=O)N[C@H]1CSSC[C@@H](C(N)=O)NC(=O)[C@@H](CCCCN)NC(=O)C[C@H](Cc2ccccc2)NC(=O)[C@H](CCCCNC(=O)COCCOCCNC(=O)COCCOCCNC(=O)CC[C@H](NC(=O)CCCCCCCCCCCCCCCCC(=O)O)C(=O)O)NC(=O)[C@H]([C@@H](C)CC)NC1=O)C(c1ccccc1)c1ccccc1)[C@@H](C)O [Compd 49] : pIC50 is 7.00 to 8.00
